test: Plasma pharmacokinetics of BI 187004 after single oral doses (LC–MS/MS); settings: male, human, plasma, po, 20 mg
OBSERVABLE: half-life (h)
Give just the number in h; leave the unit off.

Exam item: Find the recorded half-life belonging to "N#Cc1ccc2c(c1)[C@H]1CCCN(C(=O)c3ccc4[nH]cnc4c3)[C@H]1C2" and report it.
Marked response: 21.2

---

assay: Plasma pharmacokinetics of BI 187004 after single oral doses (LC–MS/MS); conditions: male, human, plasma, po, 360 mg, BI 187004 plasma concentrations, Min, 360 mg single oral, planned time 4 h
OBSERVABLE: concentration at 4 h

Exam item: Find the recorded concentration at 4 h belonging to "N#Cc1ccc2c(c1)[C@H]1CCCN(C(=O)c3ccc4[nH]cnc4c3)[C@H]1C2" and report it.
Marked response: 5.67 µM

---

assay: Plasma pharmacokinetics of BI 187004 after single oral doses (LC–MS/MS); conditions: male, human, plasma, po, 20 mg, BI 187004 plasma concentrations, 20 mg single oral, planned time 3 h, gMean
OBSERVABLE: concentration at 3 h

Exam item: Find the recorded concentration at 3 h belonging to N#Cc1ccc2c(c1)[C@H]1CCCN(C(=O)c3ccc4[nH]cnc4c3)[C@H]1C2 [BI 187004] and report it.
Marked response: 746 nM

---

assay: Plasma pharmacokinetics of BI 187004 after single oral doses (LC–MS/MS); conditions: male, human, plasma, po, 80 mg, BI 187004 plasma concentrations, 80 mg single oral, planned time 5 h, gMean
OBSERVABLE: concentration at 5 h (nM)
Give just the number in nM; leave the unit off.

Exam item: Find the recorded concentration at 5 h belonging to N#Cc1ccc2c(c1)[C@H]1CCCN(C(=O)c3ccc4[nH]cnc4c3)[C@H]1C2 [BI 187004] and report it.
Marked response: 1840

---

Experiment: BI 187004 concentration in subcutaneous adipose tissue biopsies (LC–MS/MS)
Format: in vivo, human
Settings: male, human, subcutaneous adipose tissue / plasma, oral; 40 mg single dose; 10 h; read-out: AT:plasma ratio (range) 10 h
Method: The assay was qualified for the BI 187004 concentration range of 2.5—10,000 ng/g. The BI 187004 AT concentration data for study samples were generated from seven analytical runs. For each run, the acceptance criteria for the calibration standards and QC samples were met. Acceptance criteria for all sample analysis runs were ≤ 25% RSD (relative standard deviation / precision) and ± 25% RE (relative error / accuracy) for calibration standards and quality control samples.
OBSERVABLE: Kp at 10 h
Write the value as a bare number.

Exam item: Find the recorded Kp at 10 h belonging to "N#Cc1ccc2c(c1)[C@H]1CCCN(C(=O)c3ccc4[nH]cnc4c3)[C@H]1C2" and report it.
Marked response: 10.1

---

test: Plasma pharmacokinetics of BI 187004 after single oral doses (LC–MS/MS); conditions: male, human, plasma, po, 5 mg, Plasma concentration, individual subjects, 5 mg single oral; planned time 5 h
OBSERVABLE: concentration at 5 h (nM)
Give just the number in nM; leave the unit off.

Exam item: Find the recorded concentration at 5 h belonging to "N#Cc1ccc2c(c1)[C@H]1CCCN(C(=O)c3ccc4[nH]cnc4c3)[C@H]1C2" and report it.
Marked response: 96.9

---

experiment: BI 187004 concentration in subcutaneous adipose tissue biopsies (LC–MS/MS); assay type: in vivo, human; conditions: male, human, subcutaneous adipose tissue, oral; 240 mg single dose; adipose tissue; 10 h; read-out: AT C10 gMean (range)
OBSERVABLE: concentration at 10 h

Exam item: Find the recorded concentration at 10 h belonging to "N#Cc1ccc2c(c1)[C@H]1CCCN(C(=O)c3ccc4[nH]cnc4c3)[C@H]1C2" and report it.
Marked response: 653 nM

---

assay: Plasma pharmacokinetics of BI 187004 after single oral doses (LC–MS/MS); conditions: male, human, plasma, po, 80 mg, BI 187004 plasma concentrations, 80 mg single oral, planned time 36 h, Median
OBSERVABLE: concentration at 36 h (nM)
Give just the number in nM; leave the unit off.

Exam item: Find the recorded concentration at 36 h belonging to "N#Cc1ccc2c(c1)[C@H]1CCCN(C(=O)c3ccc4[nH]cnc4c3)[C@H]1C2" and report it.
Marked response: 372

---

experiment: Plasma pharmacokinetics of BI 187004 after single oral doses (LC–MS/MS); details: male, human, plasma, po, 20 mg, BI 187004 plasma concentrations, 20 mg single oral, planned time 1.5 h, Mean
OBSERVABLE: concentration at 1.5 h

Exam item: Find the recorded concentration at 1.5 h belonging to "N#Cc1ccc2c(c1)[C@H]1CCCN(C(=O)c3ccc4[nH]cnc4c3)[C@H]1C2" and report it.
Marked response: 969 nM

---

assay: Plasma pharmacokinetics of BI 187004 after single oral doses (LC–MS/MS); details: male, human, plasma, po, 10 mg, Plasma concentration Median, 10 mg single oral; 10 h
OBSERVABLE: concentration at 10 h

Exam item: Find the recorded concentration at 10 h belonging to "N#Cc1ccc2c(c1)[C@H]1CCCN(C(=O)c3ccc4[nH]cnc4c3)[C@H]1C2" and report it.
Marked response: 0.179 µM

---

assay: Plasma pharmacokinetics of BI 187004 after single oral doses (LC–MS/MS); conditions: male, human, plasma, po, 160 mg, BI 187004 plasma concentrations, 160 mg single oral, planned time 10 h, gMean
OBSERVABLE: concentration at 10 h (nM)
Give just the number in nM; leave the unit off.

Exam item: Find the recorded concentration at 10 h belonging to "N#Cc1ccc2c(c1)[C@H]1CCCN(C(=O)c3ccc4[nH]cnc4c3)[C@H]1C2" and report it.
Marked response: 3000

---

experiment: BI 187004 concentration in subcutaneous adipose tissue biopsies (LC–MS/MS); type: in vivo, human; conditions: male, human, subcutaneous adipose tissue, oral; 160 mg single dose; adipose tissue; 10 h; read-out: AT C10 gMean (range)
OBSERVABLE: concentration at 10 h (nM)
Give just the number in nM; leave the unit off.

Exam item: Find the recorded concentration at 10 h belonging to "N#Cc1ccc2c(c1)[C@H]1CCCN(C(=O)c3ccc4[nH]cnc4c3)[C@H]1C2" and report it.
Marked response: 412

---

test: Plasma pharmacokinetics of BI 187004 after single oral doses (LC–MS/MS); details: male, human, plasma, po, 80 mg, BI 187004 plasma concentrations, 80 mg single oral, planned time 5 h, Max
OBSERVABLE: concentration at 5 h
Returns: string containing the numeric result and its unit.

Exam item: Find the recorded concentration at 5 h belonging to "N#Cc1ccc2c(c1)[C@H]1CCCN(C(=O)c3ccc4[nH]cnc4c3)[C@H]1C2" and report it.
Marked response: 3.21 µM

---

test: Plasma pharmacokinetics of BI 187004 after single oral doses (LC–MS/MS); settings: male, human, plasma, po, 20 mg, BI 187004 plasma concentrations, 20 mg single oral, planned time 96 h, Min
OBSERVABLE: concentration at 96 h (nM)
Give just the number in nM; leave the unit off.

Exam item: Find the recorded concentration at 96 h belonging to "N#Cc1ccc2c(c1)[C@H]1CCCN(C(=O)c3ccc4[nH]cnc4c3)[C@H]1C2" and report it.
Marked response: 5.78

---

assay: Plasma pharmacokinetics of BI 187004 after single oral doses (LC–MS/MS); details: male, human, plasma, po, 20 mg, BI 187004 plasma concentrations, 20 mg single oral, planned time 2 h, gMean
OBSERVABLE: concentration at 2 h (nM)
Give just the number in nM; leave the unit off.

Exam item: Find the recorded concentration at 2 h belonging to N#Cc1ccc2c(c1)[C@H]1CCCN(C(=O)c3ccc4[nH]cnc4c3)[C@H]1C2 [BI 187004] and report it.
Marked response: 863

---

test: Plasma pharmacokinetics of BI 187004 after single oral doses (LC–MS/MS); conditions: male, human, plasma, po, 360 mg
OBSERVABLE: Cmax (µM)
Give just the number in µM; leave the unit off.

Exam item: Find the recorded Cmax belonging to "N#Cc1ccc2c(c1)[C@H]1CCCN(C(=O)c3ccc4[nH]cnc4c3)[C@H]1C2" and report it.
Marked response: 13.4

---

assay: Plasma pharmacokinetics of BI 187004 after single oral doses (LC–MS/MS); conditions: male, human, plasma, po, 240 mg, BI 187004 plasma concentrations, Min, 240 mg single oral, planned time 10 h
OBSERVABLE: concentration at 10 h (nM)
Give just the number in nM; leave the unit off.

Exam item: Find the recorded concentration at 10 h belonging to "N#Cc1ccc2c(c1)[C@H]1CCCN(C(=O)c3ccc4[nH]cnc4c3)[C@H]1C2" and report it.
Marked response: 313

---

experiment: Plasma pharmacokinetics of BI 187004 after single oral doses (LC–MS/MS); conditions: male, human, plasma, po, 5 mg, Plasma concentration, individual subjects, 5 mg single oral; planned time 4 h
OBSERVABLE: concentration at 4 h (nM)
Give just the number in nM; leave the unit off.

Exam item: Find the recorded concentration at 4 h belonging to "N#Cc1ccc2c(c1)[C@H]1CCCN(C(=O)c3ccc4[nH]cnc4c3)[C@H]1C2" and report it.
Marked response: 99.5
